The values you see were collected from ChEMBL document CHEMBL3044750.

For each record, write down the corresponding Activity.
- System: Avena sativa
- Procedure Summary: Inhibition of Avena sativa var. Zenshin seed germination assessed as coleoptile length at 1 uM after 6 days (reference value: 9.5 cm)
- Assay type: functional
All answers are understood in cm, so give the number only.

Ask: Given the compound Cc1cccc(NC(=O)Oc2ccccc2)c1 [PHENYL M-TOLYLCARBAMATE] , what is its reported Activity?
Reply: 5.6

Ask: Do the same for O=C(Nc1ccccc1)OC/C=C/c1ccccc1 [CINNAMYL PHENYLCARBAMATE] please
Reply: 3.4

Ask: Do the same for CCCCOC(=O)NCSc1ccccc1 [BUTYL PHENYLTHIOMETHYLCARBAMATE] please
Reply: 2.6

Ask: Do the same for O=C(NCSc1ccccc1)Oc1ccccc1 [PHENYL PHENYLTHIOMETHYLCARBAMATE] please
Reply: 0

Ask: Do the same for O=C(Nc1ccccc1)OCCCCCc1ccccc1 [5-PHENYLPENTYL PHENYLCARBAMATE] please
Reply: 6.6

Ask: Do the same for O=C(Nc1ccccc1)OCCCc1ccccc1 [3-PHENYLPROPYL PHENYLCARBAMATE] please
Reply: 3.5

Ask: Do the same for CCOC(=O)NCSc1ccccc1 [ETHYL PHENYLTHIOMETHYLCARBAMATE] please
Reply: 0.8

Ask: Do the same for O=C(Nc1ccccc1)Oc1ccccc1 [PHENYL PHENYLCARBAMATE] please
Reply: 4.7

Ask: Do the same for CC(C)OC(=O)NCSc1ccccc1 [ISOPROPYL PHENYLTHIOMETHYLCARBAMATE] please
Reply: 0

Ask: Do the same for O=C(Nc1ccc(F)cc1)Oc1ccccc1 [PHENYL 4-FLUOROPHENYLCARBAMATE] please
Reply: 6.4

* * *

For each record, write down the corresponding Activity.
- Tested on: Avena sativa
- Procedure Summary: Inhibition of Avena sativa var. Zenshin seed germination assessed as coleoptile length at 1 uM after 6 days (reference value: 9.5 cm)
- Type: functional
All answers are understood in cm, so give the number only.

Ask: Given the compound O=C(NCSc1ccccc1)OCc1ccccc1 [BENZYL PHENYLTHIOMETHYLCARBAMATE] , what is its reported Activity?
Reply: 0

Ask: Do the same for O=C(Nc1ccccc1)OCCCCc1ccccc1 [4-PHENYLBUTYL PHENYLCARBAMATE] please
Reply: 4.9

Ask: Do the same for COc1ccc(NC(=O)Oc2ccccc2)cc1 [PHENYL 4-METHOXYPHENYLCARBAMATE] please
Reply: 8.3

Ask: Do the same for O=C(NCCc1ccccc1)OCc1ccccc1 [BENZYL PHENETHYLCARBAMATE] please
Reply: 5.2

Ask: Do the same for O=C(NCSc1ccccc1)OCCc1ccccc1 [PHENETHYL PHENYLTHIOMETHYLCARBAMATE] please
Reply: 0

Ask: Do the same for COc1ccc(COC(=O)NCSc2ccccc2)cc1 please
Reply: 1.4

Ask: Do the same for O=C(NCSc1ccccc1)Oc1ccc(Cl)cc1Cl please
Reply: 0

Ask: Do the same for O=C(Nc1ccccc1)OCc1ccccc1 [BENZYL PHENYLCARBAMATE] please
Reply: 2.8

Ask: Do the same for O=C(NCSc1ccccc1)OCCCc1ccccc1 [3-PHENYLPROPYL PHENYLTHIOMETHYLCARBAMATE] please
Reply: 4.6

Ask: Do the same for COC(=O)NCSc1ccccc1 [METHYL PHENYLTHIOMETHYLCARBAMATE] please
Reply: 0
